- Test system: PDC 899932-113-R3-J6 complex spheroid viability
- ASSAY_NOTES: Anticancer human tumor 899932-113-R3-J6-PDC patient-derived melanoma cell line growth inhibition [RAS]; active means viability on the fitted dose curve at most 10% of control; inactive means the rest
- DETAILS: second compound 0.0316 µM; first compound 1 µM
Classes used: t for active, f for inactive

* O=C(c1ccc(F)c(F)c1Nc1ccc(I)cc1F)N1CC(O)([C@@H]2CCCCN2)C1 + C=CC(=O)N1CCN(c2nc(OCC3CCCN3C)nc3c(F)c(-c4nc(N)cc(C)c4C(F)(F)F)c(Cl)cc23)C(C)C1 | t
* CC(Nc1ccc2c(c1)OCCn1cc(N3C(=O)OCC3C(F)F)nc1-2)C(N)=O (stereo not given) + C#Cc1c(F)ccc2cc(O)cc(-c3ncc4c(N5CC6CCC(C5)N6)nc(OCC56CCCN5CC(F)C6)nc4c3F)c12 | f
* CC1(O)CCCC1n1c(=O)c(C(F)F)cc2cnc(NC3CCN(S(C)(=O)=O)CC3)nc21 (stereo not given) + C=CC(=O)N1CCN(c2nc(OCC3CCCN3C)nc3c(F)c(-c4nc(N)cc(C)c4C(F)(F)F)c(Cl)cc23)C(C)C1 | f
* CC(Nc1ccc2c(c1)OCCn1cc(N3C(=O)OCC3C(F)F)nc1-2)C(N)=O (stereo not given) + C=CC(=O)N1CCN(c2nc(OCC3CCCN3C)nc3c(F)c(-c4nc(N)cc(C)c4C(F)(F)F)c(Cl)cc23)C(C)C1 | f
* Nc1ccn(C2OC(CO)C(O)C2(F)F)c(=O)n1 (stereo not given) + C=CC(=O)N1CCN(c2nc(OCC3CCCN3C)nc3c(F)c(-c4nc(N)cc(C)c4C(F)(F)F)c(Cl)cc23)C(C)C1 | f

---

Reported viability, T/C values for a set of compounds
- Test system: PDC 899932-113-R3-J6 complex spheroid viability
- ASSAY_NOTES: Anticancer human tumor 899932-113-R3-J6-PDC cell line growth inhibition [RAS];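 further: spheroids exposed to agents for seven days before readout; 100% = DMSO vehicle control wells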
- DETAILS: second compound 0.003 µM; first compound 0.0316 µM; active compounds read low
MEASURED_QUANTITY: viability, T/C

- CC1(O)CCCC1n1c(=O)c(C(F)F)cc2cnc(NC3CCN(S(C)(=O)=O)CC3)nc21 (configuration not stated) + CCn1c(-c2cccnc2C(C)OC)c2c3cc(ccc31)N1CCOC(CC(NC(=O)C(C(C)C)N(C)C(=O)C3(F)CCN(C(=O)C#CC(C)(C)N(C)C)CC3)C(=O)N3CCCC(N3)C(=O)OCC(C)(C)C2)C1: 99.8%
- CC(C)NCC(C(=O)N1CCN(c2ncnc3c2C(C)CC3O)CC1)c1ccc(Cl)cc1 (configuration not stated) + CCn1c(-c2cccnc2C(C)OC)c2c3cc(ccc31)N1CCOC(CC(NC(=O)C(C(C)C)N(C)C(=O)C3(F)CCN(C(=O)C#CC(C)(C)N(C)C)CC3)C(=O)N3CCCC(N3)C(=O)OCC(C)(C)C2)C1: 112%

---

- Tested on: PDC 899932-113-R3-J6 complex spheroid viability
- ASSAY_NOTES: Anticancer human tumor 899932-113-R3-J6-PDC cell line growth inhibition [RAS]; active = viability on the fitted dose curve at most 10% of control; inactive = the rest;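 further: spheroids exposed to agents for seven days before readout; 100% = DMSO vehicle control wells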
- DETAILS: second compound 0.00949 µM; first compound 0.01 µM
Classes used: active, inactive

- O=C(c1ccc(F)c(F)c1Nc1ccc(I)cc1F)N1CC(O)([C@@H]2CCCCN2)C1 + CCn1c(-c2cccnc2C(C)OC)c2c3cc(ccc31)N1CCOC(CC(NC(=O)C(C(C)C)N(C)C(=O)C3(F)CCN(C(=O)C#CC(C)(C)N(C)C)CC3)C(=O)N3CCCC(N3)C(=O)OCC(C)(C)C2)C1: inactive
- C=CC(=O)N1CCN(c2nc(OCC3CCCN3C)nc3c(F)c(-c4nc(N)cc(C)c4C(F)(F)F)c(Cl)cc23)C(C)C1 (centres undefined) + CCn1c(-c2cccnc2C(C)OC)c2c3cc(ccc31)N1CCOC(CC(NC(=O)C(C(C)C)N(C)C(=O)C3(F)CCN(C(=O)C#CC(C)(C)N(C)C)CC3)C(=O)N3CCCC(N3)C(=O)OCC(C)(C)C2)C1: inactive
- C=CC(=O)Nc1cc(Nc2nccc(-c3cn(C)c4ccccc34)n2)c(OC)cc1N(C)CCN(C)C + CCn1c(-c2cc(N3CCN(C)CC3)cnc2C(C)OC)c2c3cc(ccc31)-c1csc(n1)CC(NC(=O)C1CC1C)C(=O)N1CCCC(N1)C(=O)OCC(C)(C)C2: active
- CCN1CCN(Cc2ccc(Nc3ncc(F)c(-c4cc(F)c5nc(C)n(C(C)C)c5c4)n3)nc2)CC1 + CCn1c(-c2cccnc2C(C)OC)c2c3cc(ccc31)N1CCOC(CC(NC(=O)C(C(C)C)N(C)C(=O)C3(F)CCN(C(=O)C#CC(C)(C)N(C)C)CC3)C(=O)N3CCCC(N3)C(=O)OCC(C)(C)C2)C1: inactive

---

- System: PDC 899932-113-R3-J6 complex spheroid viability
- ASSAY_NOTES: Anticancer human tumor 899932-113-R3-J6-PDC cell line growth inhibition [RAS]; active = viability on the fitted dose curve at most 10% of control; inactive = the rest;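 further: spheroids exposed to agents for seven days before readout; 100% = DMSO vehicle control wells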
- DETAILS: second compound 10 µM; first compound 3.16 µM
Classes used: label 1 for active, label 0 for inactive

* NC1c2ccccc2OC12CCN(c1cnc3c(N4CCCc5ncccc54)n[nH]c3n1)CC2 (stereo not drawn) + C#Cc1c(F)ccc2cc(O)cc(-c3ncc4c(N5CC6CCC(C5)N6)nc(OCC56CCCN5CC(F)C6)nc4c3F)c12 | label 0
* Cc1nc(N2CCC3(CC2)COC(C)C3N)c(CO)nc1Sc1ccnc(N)c1Cl (stereo not drawn) + C#Cc1c(F)ccc2cc(O)cc(-c3ncc4c(N5CC6CCC(C5)N6)nc(OCC56CCCN5CC(F)C6)nc4c3F)c12 | label 0
* CCC(CC)c1cc(NC2CCC(N)C2)n2nccc2n1 (stereo not drawn) + C#Cc1c(F)ccc2cc(O)cc(-c3ncc4c(N5CC6CCC(C5)N6)nc(OCC56CCCN5CC(F)C6)nc4c3F)c12 | label 1
* CC1(O)CCCC1n1c(=O)c(C(F)F)cc2cnc(NC3CCN(S(C)(=O)=O)CC3)nc21 (stereo not drawn) + C#Cc1c(F)ccc2cc(O)cc(-c3ncc4c(N5CC6CCC(C5)N6)nc(OCC56CCCN5CC(F)C6)nc4c3F)c12 | label 0
* CC(C)NCC(C(=O)N1CCN(c2ncnc3c2C(C)CC3O)CC1)c1ccc(Cl)cc1 (stereo not drawn) + C#Cc1c(F)ccc2cc(O)cc(-c3ncc4c(N5CC6CCC(C5)N6)nc(OCC56CCCN5CC(F)C6)nc4c3F)c12 | label 0
* CC(=O)OC12COC1CC(O)C1(C)C(=O)C(O)C3=C(C)C(OC(=O)C(O)C(NC(=O)OC(C)(C)C)c4ccccc4)CC(O)(C(OC(=O)c4ccccc4)C21)C3(C)C (stereo not drawn) + C#Cc1c(F)ccc2cc(O)cc(-c3ncc4c(N5CC6CCC(C5)N6)nc(OCC56CCCN5CC(F)C6)nc4c3F)c12 | label 0
* C[C@@H](NC(=O)c1ncnc(N)c1Cl)c1ncc(C(=O)Nc2cc(C(F)(F)F)c(Cl)cn2)s1 + C#Cc1c(F)ccc2cc(O)cc(-c3ncc4c(N5CC6CCC(C5)N6)nc(OCC56CCCN5CC(F)C6)nc4c3F)c12 | label 0
* CC(Nc1ccc2c(c1)OCCn1cc(N3C(=O)OCC3C(F)F)nc1-2)C(N)=O (stereo not drawn) + C#Cc1c(F)ccc2cc(O)cc(-c3ncc4c(N5CC6CCC(C5)N6)nc(OCC56CCCN5CC(F)C6)nc4c3F)c12 | label 0

---

- System: PDC 899932-113-R3-J6 complex spheroid viability
- ASSAY_NOTES: Anticancer human tumor 899932-113-R3-J6-PDC cell line growth inhibition [RAS];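 further: spheroids exposed to agents for seven days before readout; 100% = DMSO vehicle control wells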
- DETAILS: second compound 0.0316 µM; first compound 1 µM; active compounds read low
MEASURED_QUANTITY: viability, T/C

- Cc1nc(N2CCC3(CC2)COC(C)C3N)c(CO)nc1Sc1ccnc(N)c1Cl (stereo not given) + C=CC(=O)N1CCN(c2nc(OCC3CCCN3C)nc3c(F)c(-c4nc(N)cc(C)c4C(F)(F)F)c(Cl)cc23)C(C)C1: 108%
- CCC(CC)c1cc(NC2CCC(N)C2)n2nccc2n1 (stereo not given) + C=CC(=O)N1CCN(c2nc(OCC3CCCN3C)nc3c(F)c(-c4nc(N)cc(C)c4C(F)(F)F)c(Cl)cc23)C(C)C1: 90%
- C=CC(=O)Nc1cc(Nc2nccc(-c3cn(C)c4ccccc34)n2)c(OC)cc1N(C)CCN(C)C + C=CC(=O)N1CCN(c2nc(OCC3CCCN3C)nc3c(F)c(-c4nc(N)cc(C)c4C(F)(F)F)c(Cl)cc23)C(C)C1: 82%
- NC1c2ccccc2OC12CCN(c1cnc3c(N4CCCc5ncccc54)n[nH]c3n1)CC2 (stereo not given) + C=CC(=O)N1CCN(c2nc(OCC3CCCN3C)nc3c(F)c(-c4nc(N)cc(C)c4C(F)(F)F)c(Cl)cc23)C(C)C1: 125%
- C=CC(=O)Nc1cc(Nc2nccc(-c3cn(C)c4ccccc34)n2)c(OC)cc1N(C)CCN(C)C + C#Cc1c(F)ccc2cc(O)cc(-c3ncc4c(N5CC6CCC(C5)N6)nc(OCC56CCCN5CC(F)C6)nc4c3F)c12: 95.6%
- Cc1nc(N2CCC3(CC2)COC(C)C3N)c(CO)nc1Sc1ccnc(N)c1Cl (stereo not given) + C#Cc1c(F)ccc2cc(O)cc(-c3ncc4c(N5CC6CCC(C5)N6)nc(OCC56CCCN5CC(F)C6)nc4c3F)c12: 104%
- CCN1CCN(Cc2ccc(Nc3ncc(F)c(-c4cc(F)c5nc(C)n(C(C)C)c5c4)n3)nc2)CC1 + C=CC(=O)N1CCN(c2nc(OCC3CCCN3C)nc3c(F)c(-c4nc(N)cc(C)c4C(F)(F)F)c(Cl)cc23)C(C)C1: 20.6%
- Nc1ccn(C2OC(CO)C(O)C2(F)F)c(=O)n1 (stereo not given) + C#Cc1c(F)ccc2cc(O)cc(-c3ncc4c(N5CC6CCC(C5)N6)nc(OCC56CCCN5CC(F)C6)nc4c3F)c12: 22.1%
- CC(C)NCC(C(=O)N1CCN(c2ncnc3c2C(C)CC3O)CC1)c1ccc(Cl)cc1 (stereo not given) + C#Cc1c(F)ccc2cc(O)cc(-c3ncc4c(N5CC6CCC(C5)N6)nc(OCC56CCCN5CC(F)C6)nc4c3F)c12: 76.9%
- CC(=O)OC12COC1CC(O)C1(C)C(=O)C(O)C3=C(C)C(OC(=O)C(O)C(NC(=O)OC(C)(C)C)c4ccccc4)CC(O)(C(OC(=O)c4ccccc4)C21)C3(C)C (stereo not given) + C#Cc1c(F)ccc2cc(O)cc(-c3ncc4c(N5CC6CCC(C5)N6)nc(OCC56CCCN5CC(F)C6)nc4c3F)c12: 48.3%
